Biological target: T1, 人PD-L1-His重组蛋白 (human, UniProt Q9NZQ7 19-238)
T1 construct: range 19-238; also called 人PD-L1胞外区结构域重组蛋白; 重组人PD-L1; not shown: His tag
T1 sequence (Q9NZQ7 19-238 limits assumed): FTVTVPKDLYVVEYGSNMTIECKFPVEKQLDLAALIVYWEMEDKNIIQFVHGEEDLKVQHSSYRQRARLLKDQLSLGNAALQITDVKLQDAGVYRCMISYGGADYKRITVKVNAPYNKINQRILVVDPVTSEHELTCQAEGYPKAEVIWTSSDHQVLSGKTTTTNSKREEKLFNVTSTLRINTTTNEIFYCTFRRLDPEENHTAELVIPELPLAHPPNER
Experiment: BLI (Fortebio Octet QKe), antibody captured on AHC probe, human PD-L1-His 100 nM, 1:1 Langmuir fit
RESULT_TYPE: Kd (nM)
Kindly provide the numeric value in nM only, without the unit symbol.

Record excerpt, results attached:
INSERT INTO assay_data (binder, result_type, uom, number) VALUES
  ('嵌合抗体Ch182 (antibody, human IgG1, V domains shown) VH: EVQLQQSGAELVKPGASVKLSCTVSGFNIKDIYMHWLKQRPEQGLEWIGRIDPANGNTKYDPKFQDKATMIADTSSNTAYLQLSSLTSEDTAVYYCASGQLGPLGFDYWGQGTTLTVSS VL: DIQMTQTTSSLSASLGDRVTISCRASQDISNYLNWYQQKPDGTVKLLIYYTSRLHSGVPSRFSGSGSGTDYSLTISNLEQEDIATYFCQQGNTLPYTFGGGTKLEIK', 'Kd', 'nM', 2.14),
  ('182-4 (antibody, V domains shown) VH: EVQLVQSGAEVKKPGATVKISCKVSGFNIKDIYMHWVQQAPGKGLEWMGRIDPANGNTKYDPKFQDRVTITADTSTDTAYMELSSLRSEDTAVYYCATGQLGPLGFDYWGQGTTVTVSS VL: DIQMTQSPSSLSASVGDRVTITCRASQDISNYLNWYQQKPGKAPKLLLYYTSRLHSGVPSRFSGSGSGTDYTLTISSLQPEDFATYYCQQGNTLPYTFGGGTKVEIKR', 'Kd', 'nM', 8.19);

Inquiry: Suppose we examine the binder 182-1 (antibody, V domains shown) VH: EVQLVQSGAEVKKPGATVKISCKVSGFNIKDIYMHWVQQAPGKGLEWMGRIDPANGNTKYDPKFQDRVTITADTSTDTAYMELSSLRSEDTAVYYCATGQLGPLGFDYWGQGTTVTVSS VL: DIQMTQTTSSLSASLGDRVTISCRASQDISNYLNWYQQKPDGTVKLLIYYTSRLHSGVPSRFSGSGSGTDYSLTISNLEQEDIATYFCQQGNTLPYTFGGGTKLEIKR ; what Kd value has been reported?
Reply text: 5.82

Inquiry: Suppose we examine the binder 182-6 (antibody, human IgG1, V domains shown, also called h182L2 + Ch182H) VH: EVQLQQSGAELVKPGASVKLSCTVSGFNIKDIYMHWLKQRPEQGLEWIGRIDPANGNTKYDPKFQDKATMIADTSSNTAYLQLSSLTSEDTAVYYCASGQLGPLGFDYWGQGTTLTVSS VL: DIQMTQSPSSLSASVGDRVTITCRASQDISNYLNWYQQKPGKAPKLLLYYTSRLHSGVPSRFSGSGSGTDYTLTISSLQPEDFATYFCQQGNTLPYTFGGGTKVEIKR ; what Kd value has been reported?
Reply text: 4.64

Inquiry: Suppose we examine the binder h182 (antibody, V domains shown) VH: EVQLVQSGAEVKKPGATVKISCKVSGFNIKDIYMHWVQQAPGKGLEWMGRIDPANGNTKYDPKFQDRVTITADTSTNTAYMELSSLRSEDTAVYYCASGQLGPLGFDYWGQGTTVTVSS VL: DIQMTQSPSSLSASVGDRVTITCRASQDISNYLNWYQQKPGKAPKLLLYYTSRLHSGVPSRFSGSGSGTDYTLTISSLQPEDFATYFCQQGNTLPYTFGGGTKVEIKR ; what Kd value has been reported?
Reply text: 3.64

Inquiry: Suppose we examine the binder 182-5 (antibody, V domains shown) VH: EVQLVQSGAEVKKPGATVKISCKVSGFNIKDIYMHWVQQAPGKGLEWMGRIDPANGNTKYDPKFQDRVTITADTSTNTAYMELSSLRSEDTAVYYCASGQLGPLGFDYWGQGTTVTVSS VL: DIQMTQSPSSLSASVGDRVTITCRASQDISNYLNWYQQKPGKAPKLLLYYTSRLHSGVPSRFSGSGSGTDYTLTISSLQPEDFATYYCQQGNTLPYTFGGGTKVEIKR ; what Kd value has been reported?
Reply text: 3.43

Inquiry: Suppose we examine the binder 182-2 (antibody, V domains shown) VH: EVQLVQSGAEVKKPGATVKISCKVSGFNIKDIYMHWVQQAPGKGLEWMGRIDPANGNTKYDPKFQDRVTITADTSTNTAYMELSSLRSEDTAVYYCASGQLGPLGFDYWGQGTTVTVSS VL: DIQMTQTTSSLSASLGDRVTISCRASQDISNYLNWYQQKPDGTVKLLIYYTSRLHSGVPSRFSGSGSGTDYSLTISNLEQEDIATYFCQQGNTLPYTFGGGTKLEIKR ; what Kd value has been reported?
Reply text: 1.93
